# TARGET_OR_SYSTEM: T1, bacterially produced human IL-6 (human, UniProt P05231 30-212)
# T1 construct: also called bactIL-6; prokaryotic IL-6
# TEST_METHOD_NOTES: SPR; periplasmic fraction; against parental 29B11
I'd appreciate it if you could supply fold improvement ka values for the items below.
One number for each entry, in fold.

# count of solved cases: 2
binder="Fab 48C10 (Fab, V domains shown, VL-shuffled Fab of 29B11, periplasmic fraction) VH: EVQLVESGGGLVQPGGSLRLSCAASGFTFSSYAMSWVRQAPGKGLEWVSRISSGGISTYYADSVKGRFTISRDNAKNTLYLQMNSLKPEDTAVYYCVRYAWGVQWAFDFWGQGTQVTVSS VL: AQSVLTQPPSVSGSPGQTVTISCAGTSEDVGYGNYVSWYQQLPGMAPKLLIYDVNKRASGIADRFSGSKSGNTASLTISGLQSEDEADYYCASYRRTIDNIFGGGTHLTVLG" measurement_kind="fold improvement ka" recorded_number=1.04
binder="Fab 55E2 (Fab, V domains shown, VL-shuffled Fab of 29B11, periplasmic fraction; also called 55E2b) VH: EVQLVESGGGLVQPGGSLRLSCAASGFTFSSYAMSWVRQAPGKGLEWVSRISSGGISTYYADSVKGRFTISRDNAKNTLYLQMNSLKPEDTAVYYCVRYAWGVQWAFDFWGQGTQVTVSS VL: AQSVLTQPPSVSGSPGKTVTISCAGTSSDVGYGNYVSWYQQLPGMAPKLLIYDVNKRASGIADRFSGSKFANTASLTISGLQSEDEADYYCASYKRGDNAVFGGGTKLTVLG" measurement_kind="fold improvement ka" recorded_number=1.95

Query :: Item Fab 55C1 (Fab, V domains shown, VL-shuffled Fab of 29B11, periplasmic fraction; also called 55C1a) VH: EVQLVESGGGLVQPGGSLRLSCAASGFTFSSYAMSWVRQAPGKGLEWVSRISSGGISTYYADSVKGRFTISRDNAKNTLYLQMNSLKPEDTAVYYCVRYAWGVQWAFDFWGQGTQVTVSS VL: LNFMLTQPPSVSGSPGKTVTISCAGTSSDVGYGNYVSWYQQLPGTAPKLLIYNVNKRASGITDRFSGSKSGNTASLTISGLQSEDEADYYCASYRTGDNAAFGGGTKLTVLG has what recorded fold improvement ka?
Result :: 2.24

The origin of these recorded values is patent US20220073604A1.
